# Kd per entry
SYSTEM_UNDER_TEST: mouse TSPO recombinant protein (Mus musculus)
Sequence (P50637 whole entry): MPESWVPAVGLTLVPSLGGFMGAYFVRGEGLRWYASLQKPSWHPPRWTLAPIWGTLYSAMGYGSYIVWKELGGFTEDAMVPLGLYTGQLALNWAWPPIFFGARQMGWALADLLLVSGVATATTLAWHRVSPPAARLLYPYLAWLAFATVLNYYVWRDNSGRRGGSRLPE
PROCEDURE_DETAILS: SPR multicycle kinetics, mouse TSPO in a lipid-free environment
SETUP_CONDITIONS: CM5 chip, anti-His capture, read-out: affinity to mouse TSPO

# COMPOUND, SYSTEM_UNDER_TEST, UOM, Kd
rows = [
    ("C=C[C@@]12CN(C)[C@H]3C[C@]14C(=Nc1ccccc14)[C@H]1C[C@@H]2[C@@H]3CO1", "mouse TSPO recombinant protein (Mus musculus)", "µM", 97.4),
    ("CCC(C)N(C)C(=O)c1cc2ccccc2c(-c2ccccc2Cl)n1 (stereo not drawn)", "mouse TSPO recombinant protein (Mus musculus)", "µM", 161),
    ("CN1C(=O)CN=C(c2ccc(Cl)cc2)c2cc(Cl)ccc21 [Ro5-4864, reference compound]", "mouse TSPO recombinant protein (Mus musculus)", "µM", 170),
]

====

System: T98G human glioblastoma cells
PROCEDURE_DETAILS: Cell proliferation assay (BrdU ELISA)
Format: cell-based
SETUP_CONDITIONS: Homo sapiens, T98G, 48 h, read-out: EC50, inhibition of cell proliferation
MEASURE_NAME: EC50

# COMPOUND, MEASURE_NAME, RESULT
records = [
    ("CCC(C)N(C)C(=O)c1cc2ccccc2c(-c2ccccc2Cl)n1 (stereo not shown) [PK11195]", "EC50", "81 µM"),
]
